IC50 listing for selected compounds.
- MEASURED ON: various β-lactamases (bacterial lysates) (Klebsiella pneumoniae)
- Sequence (Q9F663 whole entry, looked up): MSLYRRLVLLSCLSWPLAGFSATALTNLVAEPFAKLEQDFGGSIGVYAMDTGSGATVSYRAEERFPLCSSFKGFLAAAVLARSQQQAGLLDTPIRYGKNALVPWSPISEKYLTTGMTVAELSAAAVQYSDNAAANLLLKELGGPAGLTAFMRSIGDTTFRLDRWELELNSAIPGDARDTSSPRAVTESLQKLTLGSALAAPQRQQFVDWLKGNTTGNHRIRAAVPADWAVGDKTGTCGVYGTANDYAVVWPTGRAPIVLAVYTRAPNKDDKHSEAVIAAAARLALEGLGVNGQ
- ASSAY DETAILS: biochemical
- Assay type: biochemical
- TEST CONTEXT: lysate KP1008 KPC-2; aztreonam cleavage; read-out: AZT IC50 KP1008 KPC-2

Known IC50 results, listed for orientation:
>>> df
                                   compound                               measured_on  observable       data_value
0  O=C(O)C[C@@H]1CC[C@H](NC(=O)Cc2ccccn2)B(O)O1 [Compound 57]  various β-lactamases (bacterial lysates) (Klebsiella pneumoniae)        IC50        < 1710 nM
1  CCOC(=O)C[C@@H]1CC[C@H](NC(=O)Cc2cccs2)B(O)O1 [Compound 65]  various β-lactamases (bacterial lysates) (Klebsiella pneumoniae)        IC50  1540 to 6150 nM
2  C[C@]1(Cn2ccnn2)[C@H](C(=O)N[C@H]2CC[C@@H](CC(=O)O)OB2O)N2C(=O)C[C@H]2S1(=O)=O [Compound 59]  various β-lactamases (bacterial lysates) (Klebsiella pneumoniae)        IC50        < 1100 nM
3  O=C(O)CC1CC[C@H](NC(=O)C2CC2)B(O)O1 (stereo partly shown) [Compound 4]  various β-lactamases (bacterial lysates) (Klebsiella pneumoniae)        IC50        < 2070 nM
4  O=C(O)C[C@@H]1CC[C@H](NC(=O)c2ccccc2)B(O)O1 [Compound 37]  various β-lactamases (bacterial lysates) (Klebsiella pneumoniae)        IC50        < 1800 nM
5  O=C(O)C[C@@H]1CC[C@H](NC(=O)Cn2ccnc2-c2ccccc2)B(O)O1 [Compound 54]  various β-lactamases (bacterial lysates) (Klebsiella pneumoniae)        IC50        < 1400 nM

Now look at this entry.
// IC50 lookup, key: O=C(O)C[C@@H]1CC[C@H](NC(=O)Cc2ccncc2)B(O)O1 [Compound 49] < 1710 nM
